Quick reference for IC50 among some compounds
# testSystem: MELK (Homo sapiens, UniProt Q14680)
# Sequence (Q14680 whole entry, looked up): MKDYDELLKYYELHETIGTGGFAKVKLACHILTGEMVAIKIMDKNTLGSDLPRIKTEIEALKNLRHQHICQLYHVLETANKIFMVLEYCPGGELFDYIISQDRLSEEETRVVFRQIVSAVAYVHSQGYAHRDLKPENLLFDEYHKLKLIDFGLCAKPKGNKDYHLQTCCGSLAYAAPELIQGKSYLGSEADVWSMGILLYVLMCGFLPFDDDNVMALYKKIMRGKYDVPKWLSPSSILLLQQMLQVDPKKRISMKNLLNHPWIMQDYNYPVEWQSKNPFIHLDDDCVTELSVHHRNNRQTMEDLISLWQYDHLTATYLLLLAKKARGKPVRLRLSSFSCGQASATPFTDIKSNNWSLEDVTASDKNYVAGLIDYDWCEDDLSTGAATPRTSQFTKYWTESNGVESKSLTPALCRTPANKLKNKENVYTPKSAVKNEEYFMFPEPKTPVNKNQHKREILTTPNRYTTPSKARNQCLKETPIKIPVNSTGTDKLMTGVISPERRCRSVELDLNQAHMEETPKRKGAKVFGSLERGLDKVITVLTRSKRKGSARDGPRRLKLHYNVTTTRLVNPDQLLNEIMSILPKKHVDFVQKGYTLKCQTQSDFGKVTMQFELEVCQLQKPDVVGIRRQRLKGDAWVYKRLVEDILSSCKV
# testProtocol: Kinase assay: MELK activity, phosphorylation of FITC-labeled histone H3 peptide measured by IMAP fluorescence polarization
# Assay type: biochemical
# conditions: MELK kinase assay, IMAP fluorescence polarization, 50 micro-M ATP; read-out: IC50 (μM) (kinase assay)
Counter-ions that a name gives are not always drawn.
Unit µM implied. Number only.

Known results for compounds:
compound	testSystem	readoutValue
COc1cc(-c2ccc3ncc(C(C)=O)c(N[C@H]4CC[C@H](N)CC4)c3c2)cc(Cl)c1O [Example 940, hydrochloride]	MELK (Homo sapiens, UniProt Q14680)	0.0012
CC(=O)c1cnc2ccc(-c3cc(Cl)c(O)c(Cl)c3)cc2c1N[C@H]1CC[C@H](C(=O)N(C)C)CC1 [Example 865, hydrochloride]	MELK (Homo sapiens, UniProt Q14680)	0.0093
CC(=O)c1cnc2ccc(-c3cc(Cl)c(O)c(Cl)c3)cc2c1NC1CCN(CCN(C)C)CC1	MELK (Homo sapiens, UniProt Q14680)	0.0027
CC(=O)c1cnc2ccc(-c3cc(F)c(O)c(Cl)c3)cc2c1N[C@H]1CC[C@H](CN2CCCC(N)C2)CC1 (stereo partly shown)	MELK (Homo sapiens, UniProt Q14680)	0.0043
CC(=O)c1cnc2ccc(-c3cc(Cl)c(O)c(Cl)c3)cc2c1N[C@H]1CC[C@H](C(=O)NCCN(C)C)CC1 [Example 892, hydrochloride]	MELK (Homo sapiens, UniProt Q14680)	0.0023

Any idea what IC50 came out for CC(=O)c1cnc2ccc(-c3cc(F)c(O)c(Cl)c3)cc2c1NC1CCCN(CCN(C)C)C1 (stereo not shown) on MELK (Homo sapiens, UniProt Q14680)?
0.04

Any idea what IC50 came out for CS(=O)(=O)c1cnc2ccc(-c3cc(Cl)c(O)c(Cl)c3)cc2c1Nc1ccc(N2CCCC(N)C2)nc1 (stereo not shown) on MELK (Homo sapiens, UniProt Q14680)?
0.00094

###

# testSystem: MELK (Homo sapiens, UniProt Q14680)
# testProtocol: Kinase assay: MELK activity, phosphorylation of FITC-labeled histone H3 peptide measured by IMAP fluorescence polarization
# Format: biochemical
# conditions: MELK kinase assay, IMAP fluorescence polarization, 50 micro-M ATP; read-out: IC50 (μM) (kinase assay)
Where a name gives a salt, the structure may show the parent alone.
measuredMetric: IC50 (µM)
Unit µM implied. Number only.

Known results for compounds:
compound	testSystem	IC50 / µM
CN(C)C1CCN(c2ccc(Nc3c(S(C)(=O)=O)cnc4ccc(-c5cc(F)c(O)c(Cl)c5)cc34)cn2)C1 (stereo not drawn) [Example 889, hydrochloride]	MELK (Homo sapiens, UniProt Q14680)	0.0092
CC(=O)c1cnc2ccc(-c3cc(F)c(O)c(Cl)c3)cc2c1N[C@H]1CC[C@H](NC(=O)C2CCCN2C)CC1 (stereo partly drawn) [Example 874, hydrochloride]	MELK (Homo sapiens, UniProt Q14680)	0.016

Alright, here's another compound for you.
Param item = CC(=O)c1c(C)nc2ccc(-c3cc(F)c(O)c(Cl)c3)cc2c1N[C@H]1CC[C@H](CN(C)C)CC1 [Example 834, hydrochloride] ; retrieve measured IC50.
0.82

###

# Test system: 22Rv1 cells
# testProtocol: Cell-based assay: anti-proliferative activity, Cell Counting Kit-8, 72 hours (22Rv1)
# conditions: Homo sapiens
Where a name gives a salt, the structure may show the parent alone.
measuredMetric: IC50
Remember to follow the number with its unit.

compound	IC50
CC(=O)c1cnc2cc(F)c(-c3cc(F)c(O)c(Cl)c3)cc2c1N[C@H]1CC[C@H](CN2CCCC2)CC1 [Example 925, hydrochloride]	0.27 µM
CC(=O)c1cnc2ccc(-c3ccc4nc[nH]c4c3)cc2c1N[C@H]1CC[C@H](CN(C)C)CC1 [Example 911, hydrochloride]	5.4 µM
CC(=O)c1cnc2cc(F)c(-c3cc(Cl)c(O)c(Cl)c3)cc2c1N[C@H]1CC[C@H](CN(C)C)CC1 [Example 903, hydrochloride]	0.27 µM
CC(=O)c1cnc2ccc(-c3cc(F)c(O)c(Cl)c3)cc2c1N[C@H]1CC[C@H](NC(=O)[C@@H]2CCCN2)CC1 [Example 921]	0.21 µM
CN(C)C[C@H]1CC[C@H](Nc2c(C(=O)C(C)(C)C)cnc3ccc(-c4cc(F)c(O)c(Cl)c4)cc23)CC1 [Example 919, hydrochloride]	3.5 µM
COc1cc(-c2ccc3ncc(C(=O)C4CCCC4)c(Nc4cccc(CCN5CCCC5)c4)c3c2)cc(Cl)c1O [Example 924, hydrochloride]	3 µM

Param item = CC(=O)c1cnc2cc(C)c(-c3cc(Cl)c(O)c(Cl)c3)cc2c1N[C@H]1CC[C@H](CN2CCC(N)C2)CC1 (stereo partly shown) [Example 872, hydrochloride] ; retrieve measured IC50.
14 µM

Param item = COc1cc(-c2cc3c(N[C@H]4CC[C@H](CN5CCCC5)CC4)c(C(C)=O)cnc3cc2F)cc(Cl)c1O [Example 926, hydrochloride] ; retrieve measured IC50.
0.69 µM

Param item = CC(=O)c1cnc2ccc(-c3cn[nH]c3)cc2c1N[C@H]1CC[C@H](CN(C)C)CC1 [Example 912, hydrochloride] ; retrieve measured IC50.
1.7 µM

Param item = CN1CCC(n2cc(Nc3c(C(=O)C(C)(C)C)cnc4ccc(-c5cc(F)c(O)c(Cl)c5)cc34)cn2)CC1 [Example 930, hydrochloride] ; retrieve measured IC50.
2.5 µM

Param item = CC(=O)c1cnc2ccc(-c3cc(Cl)c(O)c(Cl)c3)cc2c1N[C@H]1CC[C@H](NC(=O)[C@H](C)N)CC1 [Example 886] ; retrieve measured IC50.
0.088 µM

Param item = CC(=O)c1cnc2ccc(-c3ccc4nc[nH]c4c3)cc2c1Nc1cnn(C2CCN(C)CC2)c1 [Example 895, hydrochloride] ; retrieve measured IC50.
2.2 µM

Param item = CN(C)C[C@H]1CC[C@H](Nc2c(C(=O)C(C)(C)C)cnc3ccc(-c4cc(Cl)c(O)c(Cl)c4)cc23)CC1 [Example 918, hydrochloride] ; retrieve measured IC50.
6.6 µM

meta.source: patent US9120749B2
